Measured values drawn from paper PMC8136791 for this set.

# Test target: FinO (Salmonella enterica SL1344 (virulence …, UniProt A0A0H3P176 1-187))
# Test description: EMSA; yeast RNA 1 ug/reaction; apparent Kd; 25 mM Tris-HCl pH 7.4, 150 mM NaCl, 1 mM MgCl2, 1 ug yeast RNA/reaction, 4 nM labeled RNA, 37 C, 1 h (EMSA) or 30 min (filter binding)
# Experimental setup: protein: recombinant; tags: His6-3C (expression plasmid pMiG007-His6-3C-FinO); label: 32P (5' end; 3' pCp alternative for probing); two stem-loops (SLI, SLII) with 3' U tail
Endpoint name: Kd

Binder	Experimental value
FinP (structured_RNA) RNA: GGGACACAUAGGAACCUCCUCAAAGGAUUCUAUGGACAGUCGAUGCAGGGAGUGACAGCUCCCUGUAUCGGCGAUUUU	~500 nM
